Experiment: ATG_EGR_CIS: Attagene CIS-FACTORIAL HepG2 Assay for human Early Growth Response 1 (EGR1) (AID 2282938)
Settings: HepG2 Attagene CIS-FACTORIAL EGR reporter mRNA; actives raise or lower the signal
Active and inactive are the calls of the source. How the source made its calls: active means hit-call score of the fitted dose curve at least 0.9, where 1 is the maximum; inactive means score below 0.9.
reportedProperty: AC50

Known AC50 results, listed for orientation:
compound	AC50
CCc1ccc2c(c1)C(=O)c1ccccc1C2=O	inactive
Nc1ccc(Cl)cc1Cl	inactive
N[C@H]1C(O)O[C@H](CO)[C@H](O)[C@@H]1O (some centres not stated)	inactive
CCCC(=O)OCc1ccccc1	inactive
CCOC(=O)NNc1nncc2ccccc12	inactive
CC1(C)O[C@@H]2C[C@H]3[C@@H]4C[C@H](F)C5=CC(=O)C=C[C@]5(C)[C@@]4(F)[C@@H](O)C[C@]3(C)[C@]2(C(=O)CO)O1	inactive
COC(=O)/C=C/C(C)=C\C=C\C(C)=C\C=C\C=C(C)\C=C\C=C(C)\C=C\C(=O)O	inactive
O=C(OCC1CCC2OC2C1)C1CCC2OC2C1 (configuration not stated)	inactive

Give AC50 for all compounds that follow.
1. CCOc1nc(F)cc2nc(S(=O)(=O)Nc3c(Cl)cccc3C(=O)OC)nn12
2. CCCc1ccc(OC)cc1
3. COc1c2ccoc2cc2oc(=O)ccc12
4. C=CC(=O)OCCOC(=O)C=C

OUT:
1. inactive
2. inactive
3. inactive
4. 27.4 µM (active)

###

Target: Cellular tumor antigen p53 (Homo sapiens)
Assay: ATG_p53_CIS: Attagene CIS-FACTORIAL HepG2 Assay for human p53 Transcription Factor (AID 2282994)
Settings: HepG2 p53 cis-element reporter, Attagene mRNA; actives raise or lower the signal
Active and inactive are the calls of the source. How the source made its calls: active means hit-call score of the fitted dose curve at least 0.9, where 1 is the maximum; inactive means score below 0.9.
Select the correct class. Options are y = active, n = inactive and nothing else.

A selection of reference data follows.
compound	discreteLabel
CCN(CCC#N)c1ccc(N=Nc2c(Cl)cc([N+](=O)[O-])cc2Cl)cc1	n
CCOC(=O)NNc1nncc2ccccc12	n
CCCCC/C=C\C/C=C\CCCCCCCC(=O)OC	y
CN(C)c1ccc(N=Nc2ccccc2C(=O)O)cc1	y
CCCCCCCC(C)=O	n

IN: Record request — test call for C=CC(=O)OCCOC1C2CCC1C1CC=CC12 (stereo not drawn)
OUT: n

IN: Okay, and CC1=NN(c2cc(S(=O)(=O)O)ccc2Cl)C(=O)C1N=Nc1ccccc1 (stereo not drawn) ?
OUT: n

IN: Okay, and `COc1ccc([C@@H]2CC(=O)c3c(O)cc(O[C@@H]4O[C@H](CO[C@@H]5O[C@@H](C)[C@H](O)[C@@H](O)[C@H]5O)[C@@H](O)[C@H](O)[C@H]4O)cc3O2)cc1OC` ?
OUT: n

IN: Okay, and CC(C)CCCC(C)CC=O (stereo not drawn) ?
OUT: n

IN: Okay, and `COC(=O)/C=C\C(=O)O` ?
OUT: n

IN: Okay, and C=CC(C)(CCC=C(C)C)OC(=O)C(C)C (stereo not drawn) ?
OUT: n

IN: Okay, and `O=C(C(Cl)Cl)N1CCOC12CCCCC2` ?
OUT: n

IN: Okay, and `CC1(C)S[C@@H]2[C@H](NC(=O)COc3ccccc3)C(=O)N2[C@H]1C(=O)O` ?
OUT: n

IN: Okay, and `COC(=O)/C=C/C(C)=C\C=C\C(C)=C\C=C\C=C(C)\C=C\C=C(C)\C=C\C(=O)O` ?
OUT: n

IN: Okay, and `COc1ccc(C(Cl)=C(c2ccc(OC)cc2)c2ccc(OC)cc2)cc1` ?
OUT: n

###

Read-out: C-C motif chemokine 2 (Homo sapiens)
Test: BSK_KF3CT_MCP1: BioMAP Diversity Plus: KF3CT Assay for Monocyte Chemoattractant Protein 1 (MCP1/CCL2) Biomarker Activity (AID 2283073)
Conditions: primary human keratinocytes with fibroblasts; actives raise or lower the signal
Activity calls are given as the source filed them. How the source made its calls: active means hit-call score of the fitted dose curve at least 0.9, where 1 is the maximum; inactive means score below 0.9.
reportedProperty: AC50

Known AC50 results, listed for orientation:
molecule	AC50
C/C=C\C/C=C/CCCCCCCCOC(C)=O	20 µM (active)
CCO[Si](CCCN=C=O)(OCC)OCC	inactive
COc1ccc2nc(N)sc2c1	inactive
c1ccc(-c2ccccn2)nc1	inactive
CCOc1nc(F)cc2nc(S(=O)(=O)Nc3c(Cl)cccc3C(=O)OC)nn12	inactive

Give AC50 for all molecules that follow.
1. CO[Si](OC)(OC)c1ccccc1
2. CC(C)C(=O)C(C)C
3. C#CC1(O)CC[C@H]2[C@@H]3CCC4=CCCC[C@@H]4[C@H]3CC[C@@]21C (stereo partly drawn)
4. COCc1c(C(C)C)nc(C(C)C)c(/C=C/[C@@H](O)C[C@@H](O)CC(=O)O)c1-c1ccc(F)cc1
5. C=CC(=O)OCC(Br)CBr (stereo not drawn)
6. CCO[Si](C)(OCC)OCC
7. O=C(Nc1ccccc1SSc1ccccc1NC(=O)c1ccccc1)c1ccccc1
8. S=C(NC1CCCCC1)NC1CCCCC1

OUT:
1. inactive
2. inactive
3. 30.9 µM (active)
4. 0.071 µM (active)
5. inactive
6. inactive
7. inactive
8. inactive

###

Test: CPHEA_Stoker_NIS_Cytotoxicity: Cytotoxicity Assessment for CPHEA's Radioactive Iodide Uptake (RAIU) Assay for Sodium/Iodide Symporter (NIS) Inhibition, Stoker and Laws Labs (AID 2283897)
The source made the active and inactive calls. The calls were made as follows: active = hit-call score of the fitted dose curve at least 0.9, where 1 is the maximum; inconclusive = response in the unintended direction; inactive = score below 0.9.
Select the correct class. Options are TRUE = active, FALSE = inactive and nothing else.

smilesText	discreteLabel
CN(C)c1ccc(C(=N)c2ccc(N(C)C)cc2)cc1	FALSE
CC/C=C\C/C=C\C/C=C\CCCCCCCC(=O)O	FALSE
CC(C)(C)c1ccc(OC(=O)c2ccccc2O)cc1	FALSE

Query molecule follows.
IN: Record request — test call for `O=c1cc(-c2ccccc2)oc2ccccc12`
OUT: FALSE

###

Assay: CCTE_Shafer_MEA_dev_bursting_electrodes_number: CCTE's Neural Network Formation Assay for Number of Bursting Electrodes, Shafer Lab (AID 2284043);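 on AC50: potency is for loss of bursting electrodes relative to DMSO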
Results filed as inconclusive are left out. The source made the active and inactive calls. Rule for the calls: active = hit-call score of the fitted dose curve at least 0.9, where 1 is the maximum; inconclusive = response in the unintended direction; inactive = score below 0.9.
reportedProperty: AC50

Known AC50 results, listed for orientation:
smilesText	reportedProperty	observedMeasurement
CC=CC(F)(F)C(F)(F)C(F)(F)F	AC50	inactive
CC1(C)S[C@@H]2[C@H](NC(=O)COc3ccccc3)C(=O)N2[C@H]1C(=O)O	AC50	inactive
CCOC(F)(F)C(F)(F)C(F)(F)C(F)(F)F	AC50	inactive
CN(C)c1ccc(C(=N)c2ccc(N(C)C)cc2)cc1	AC50	2.27 µM (active)

IN: Quick one: AC50 for `COC(F)(F)C(F)(C(F)(F)F)C(F)(F)F` ?
OUT: inactive

###

Target: Cellular tumor antigen p53 (Homo sapiens) (UniProt P04637)
Sequence (P04637 whole entry, looked up): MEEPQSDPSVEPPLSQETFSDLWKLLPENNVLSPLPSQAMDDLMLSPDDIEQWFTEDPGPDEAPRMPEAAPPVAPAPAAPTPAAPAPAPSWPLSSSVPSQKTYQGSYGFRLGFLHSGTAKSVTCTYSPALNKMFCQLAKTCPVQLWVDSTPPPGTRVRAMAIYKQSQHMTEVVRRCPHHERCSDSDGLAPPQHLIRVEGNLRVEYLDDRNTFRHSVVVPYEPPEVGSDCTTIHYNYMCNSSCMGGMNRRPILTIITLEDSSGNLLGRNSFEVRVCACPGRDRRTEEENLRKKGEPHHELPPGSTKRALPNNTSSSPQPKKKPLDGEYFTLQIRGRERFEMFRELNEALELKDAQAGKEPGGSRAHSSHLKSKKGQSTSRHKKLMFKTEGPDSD
Assay: ATG_p53_CIS: Attagene CIS-FACTORIAL HepG2 Assay for human p53 Transcription Factor (AID 2282994)
Conditions: HepG2 p53 cis-element reporter, Attagene mRNA; actives raise or lower the signal
Activity calls are given as the source filed them. The calls were made as follows: active = hit-call score of the fitted dose curve at least 0.9, where 1 is the maximum; inactive = score below 0.9.
Select the correct class. Options are active, inactive and nothing else.

IN: Record request — test call for `NC(=O)NNC(N)=O`
OUT: inactive

IN: Okay, and `N#[N+]c1ccc2c(S(=O)(=O)[O-])cccc2c1O` ?
OUT: inactive

IN: Okay, and CO[Si](CCC1CCC2OC2C1)(OC)OC (centres undefined) ?
OUT: inactive

IN: Okay, and `N=c1ccn2c(n1)O[C@H]1[C@H](O)[C@@H](CO)O[C@H]12` ?
OUT: inactive

IN: Okay, and CCCCCCC(O)CO (centres undefined) ?
OUT: inactive

###

Molecular target: Cellular tumor antigen p53 (Homo sapiens) (UniProt P04637)
Assay: TOX21_p53_BLA_p3_ratio: Tox21 HCT-116 p53 Agonism Beta-lactamase Assay, Ratio, Phase 3 (AID 2283596)
Inconclusive results are not listed. Activity calls are given as the source filed them. How the source made its calls: active means hit-call score of the fitted dose curve at least 0.9, where 1 is the maximum; inconclusive means response in the unintended direction; inactive means score below 0.9.
reportedProperty: AC50

smilesText	targetSystem	AC50
Nc1cccc(C(F)(F)F)c1	Cellular tumor antigen p53 (Homo sapiens) (UniProt P04637)	inactive
c1ccc(CCCc2ccncc2)cc1	Cellular tumor antigen p53 (Homo sapiens) (UniProt P04637)	inactive
O=S(=O)(O)c1ccccc1C=Cc1ccc(-c2ccc(C=Cc3ccccc3S(=O)(=O)O)cc2)cc1	Cellular tumor antigen p53 (Homo sapiens) (UniProt P04637)	inactive
CC(C)=CCC[C@H](C)CCO	Cellular tumor antigen p53 (Homo sapiens) (UniProt P04637)	inactive

Give AC50 for all compounds that follow.
1. CC(C)=CCC/C(C)=C\C#N
2. Cc1ccc([N+](=O)[O-])cc1S(=O)(=O)O
3. CC(C)(C)C(=O)C=Cc1ccc(Cl)cc1
4. [Cl][Bi]([Cl])([c]1ccccc1)([c]1ccccc1)[c]1ccccc1

OUT:
1: inactive; 2: inactive; 3: inactive; 4: 76.2 µM (active)

Give AC50 for all compounds that follow.
1. Cc1cc(O)c(Cl)c(C)c1Cl
2. CCCOCCOCCOCCO

OUT:
85 µM (active)
inactive

Give AC50 for all compounds that follow.
1. O=C1CCCCCCCCCCC(=O)OCCO1
2. O=C1c2cccc(O)c2C(=O)c2c(O)cc(CO)cc21
3. Cc1ccc2c(c1)C(=O)c1ccccc1C2=O

OUT:
1: inactive; 2: inactive; 3: inactive
